# testSystem: full length human CCR8 (hCCR8) (human, UniProt P51685 1-355)
# experimentalProtocol: cell-based or functional assay
recordedEndpoint: average IC50 of inhibition of CCL1-mediated chemotaxis of hCCR8 P815 cells

Lookup: Fill in the blank: the reported average IC50 of inhibition of CCL1-mediated chemotaxis of hCCR8 P815 cells of Fab fragment of anti-CCR8 antibody 1434 (Fab, V domains shown) VH: EVQLVESGGGLVQPGGSLRLSCAASGFPFEPFAMNWVRQAPGKGLEWVGRIRSKANNYATYYADSVKDRFTISRDDSKRSLYLLMNSLKFEDTAVYYCVRGRENNYGYAMDYWGQGTTVTVSS VL: DVVMTQSPLSLPVTLGQPASISCRSSQSLLHSNGITYLYWFQQRPGQSPRRLIYRMSNLASGVPDRFSGSGSGTDFTLKISRVEAEDVGVYYCMQHLTYPFTFGIGTKVEIK is ____.
Found: 414 pM
